Target: hGLP-1R (Homo sapiens, UniProt P43220)
Sequence (P43220 24-463): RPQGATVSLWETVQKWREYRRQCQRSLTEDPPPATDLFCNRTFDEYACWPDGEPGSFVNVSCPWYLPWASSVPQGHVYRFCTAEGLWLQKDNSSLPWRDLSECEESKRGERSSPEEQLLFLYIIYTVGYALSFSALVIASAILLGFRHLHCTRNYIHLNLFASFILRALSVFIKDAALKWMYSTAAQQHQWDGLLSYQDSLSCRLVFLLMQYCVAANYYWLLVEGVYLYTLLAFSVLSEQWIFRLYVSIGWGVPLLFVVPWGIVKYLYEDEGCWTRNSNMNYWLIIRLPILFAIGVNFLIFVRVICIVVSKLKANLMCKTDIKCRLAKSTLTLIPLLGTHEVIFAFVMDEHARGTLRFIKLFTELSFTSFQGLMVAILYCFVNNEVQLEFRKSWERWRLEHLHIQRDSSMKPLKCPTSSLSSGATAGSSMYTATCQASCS
Experiment: cell-based or functional assay
Starred links: 1 amine or outer side, 2 acyl side, 3 side chain; linkers in the order of their positions; H or OH if unused. Non-standard residues stand in square brackets, D forms with d. Groups on a side chain read outwards from the residue. No end group written: not given here. *: point of attachment. C18 diacid = O=C(O)CCCCCCCCCCCCCCCCC(=O)*; αMePhe(2-F) = C[C@](N)(Cc1ccccc1F)C(=O)O; γGlu = O=C(O)[C@H](CCC(=O)[*:2])N[*:1]; αMeL = CC(C)C[C@](C)(N)C(=O)O; Dap = NC[C@H](N)C(=O)O; AEEA = NCCOCCOCC(=O)O; Aib = CC(C)(N)C(=O)O
For each entry below, report its cAMP Rel EC50, nM (1% HSA) value.
Use nM as the unit, but write only the number.

[in] Param item = YXQGTFTSDFSXXLDKKAQXAFIEYLLEXGXSSGAPPPSGT (synthetic construct; SITE 2: note = 2-Aminoisobutyric Acid; SITE 12: note = L-ornithine; SITE 13: note = alpha-methyl-leucine; SITE 17: note = Lysine is chemically modified through conjugation of the epsilon-amino group of the Lysine side chain with (2-[2-(2-Amino-ethoxy)-ethoxy]-acetyl)2-(gamma-Glu)) [Example 184] ; retrieve measured cAMP Rel EC50, nM (1% HSA).
[out] 465

[in] Now give it for YXQGTFTSDXSQXLDKKAQXAFIEYLIAGGPSSGAPPPEGS (non-natural residues, C18 diacid acylation; synthetic construct; SITE 2: note = 2-Aminoisobutyric Acid; SITE 10: note = 3-(4-Pyridyl)-L-alanine; SITE 13: note = alpha-methyl-leucine; SITE 17: note = Lysine is chemically modified through conjugation of the epsilon-amino group of the Lysine side chain with (gamma-Glu)2-CO-(CH2)16-CO2H; SITE 20:) [Example 969] too.
[out] 113

[in] Note, next up: YXQGTFTSDFSXXLDKKAQXAFIEYLLEGGPSSGAPPXGGS (acylated; synthetic construct; SITE 2: note = 2-Aminoisobutyric Acid; SITE 12: note = L-ornithine; SITE 13: note = alpha-methyl-leucine; SITE 17: note = Lysine is chemically modified through conjugation of the epsilon-amino group of the Lysine side chain with (2-[2-(2-Amino-ethoxy)-ethoxy]-acetyl)-(gamma-Glu)) [Example 237]
[out] 291

[in] Next record, please: YXQGTXTSDXXIXLDXKAQXXFIEXLQEGGPSSGEPPPE (synthetic construct; SITE 2: note = 2-Aminoisobutyric Acid; SITE 6: note = alpha-methyl-2-fluoro-L-phenylalanine; SITE 10: note = 3-(4-Pyridyl)-L-alanine; SITE 11: note = alpha-methyl-L-serine; SITE 13: note = alpha-methyl-leucine; SITE 16: note = L-ornithine; SITE 17: note = Lysine is chemically mo) [Example 439]
[out] 15.1

[in] Can you check YXQGTFTSDFSXXLDKKAQXAFIEWLLEGGTSSGAPPPSGT (synthetic construct; SITE 2: note = 2-Aminoisobutyric Acid; SITE 12: note = L-ornithine; SITE 13: note = alpha-methyl-leucine; SITE 17: note = Lysine is chemically modified through conjugation of the epsilon-amino group of the Lysine side chain with (2-[2-(2-Amino-ethoxy)-ethoxy]-acetyl)-(gamma-Glu)) [Example 177] next?
[out] 483

[in] Now the binder YXQGTXTSDYSIXLDKKAQXAFIEYLEEGGPSSGAPPPE (synthetic construct; SITE 2: note = 2-Aminoisobutyric Acid; SITE 6: note = alpha-methyl-2-fluoro-L-phenylalanine; SITE 13: note = alpha-methyl-leucine; SITE 17: note = Lysine is chemically modified through conjugation of the epsilon-amino group of the Lysine side chain with (2-[2-(2-Amino-ethoxy)-et)) [Example 400]
[out] 29.1

[in] Likewise for YXQGTFTSDFSXXLDKKAQXAFIEYLIEXGPSSGAPPPSGS (synthetic construct; SITE 2: note = 2-Aminoisobutyric Acid; SITE 12: note = L-ornithine; SITE 13: note = alpha-methyl-leucine; SITE 17: note = Lysine is chemically modified through conjugation of the epsilon-amino group of the Lysine side chain with (2-[2-(2-Amino-ethoxy)-ethoxy]-acetyl)-(gamma-Glu)) [Example 796] ?
[out] 125

[in] One more binder: YXQGTFTSDXSQXLDKKAQXAFIEYLLAGGPSSGAPPPSGSEE (AEEA-γGlu-C18 diacid on Lys; non-natural residues; amide; synthetic construct; SITE 2: note = 2-Aminoisobutyric Acid; SITE 10: note = 3-(4-Pyridyl)-L-alanine; SITE 13: note = alpha-methyl-leucine; SITE 17: note = Lysine is chemically modified through conjugation of the epsilon-amino group of the Lysine side chain with (2-[2-(2-Amino-ethoxy)-ethoxy]-acetyl)) [Example 1037]
[out] 625

[in] Record: YXQGTFTSDFSQXLDKKAQXAFIEYLLEGGPSSGAPPPSGS (synthetic construct; SITE 2: note = 2-Aminoisobutyric Acid; SITE 13: note = alpha-methyl-leucine; SITE 17: note = Lysine is chemically modified through conjugation of the epsilon-amino group of the Lysine side chain with (2-[2-(2-Amino-ethoxy)-ethoxy]-acetyl)-(gamma-Glu)-CO-(CH2) 16-CO2H; SITE 20: n) [Example 150]
[out] 463

[in] Try this binder too: Y[Aib]QGT[αMePhe(2-F)]TSDYSILLDKQAAKEFIEYLIEGGPSSGEPPPSEG-NH2 (not fully specified (residue 20)) [Example 348]
[out] 136

[in] Can you check YXQGTFTSDXSXXLDKKAQXAFIEXLIEXGPSSGEPPPSGS (Lys acylated (γ-Glu)2-C18 diacid; non-natural residues; C-terminal amide; synthetic construct; SITE 2: note = 2-Aminoisobutyric Acid; SITE 10: note = 3-(4-Pyridyl)-L-alanine; SITE 12: note = L-ornithine; SITE 13: note = alpha-methyl-leucine; SITE 17: note = Lysine is chemically modified through conjugation of the epsilon-amino group of the Lysine side chain with (gamma-Gl)) [Example 989] next?
[out] 402

[in] Same lookup for Y[Aib]QGTFTSDYS[Dap][αMeL]LDKK([AEEA-γGlu-C18 diacid])AQ[Aib]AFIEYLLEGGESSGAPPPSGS-NH2 [Example 360] , please.
[out] 989

[in] Also YXQGTXTSDYXIXLDXKAQXXFIEYLLEGGPSSGAPPPS (synthetic construct; SITE 2: note = 2-Aminoisobutyric Acid; SITE 6: note = alpha-methyl-2-fluoro-L-phenylalanine; SITE 11: note = alpha-methyl-L-serine; SITE 13: note = alpha-methyl-leucine; SITE 16: note = L-ornithine; SITE 17: note = Lysine is chemically modified through conjugation of the epsilon) [Example 384] , if possible.
[out] 19.3

[in] YXQGTFTSDXSQXLDKKAQXAFIEYLIAGGESSGAPPPSGSEE (non-natural residues, C18 diacid-(γGlu)2 acyl on K, C-terminal amide; synthetic construct; SITE 2: note = 2-Aminoisobutyric Acid; SITE 10: note = 3-(4-Pyridyl)-L-alanine; SITE 13: note = alpha-methyl-leucine; SITE 17: note = Lysine is chemically modified through conjugation of the epsilon-amino group of the Lysine side chain with (gamma-Glu)2-CO-(CH2)16-CO2H; SITE 20:) [Example 963] ?
[out] 215

[in] Please give the result for YXQGTFTSDFSXXLDKKAQXAFIEWLLEGGSSSGAPPPSGE (synthetic construct; SITE 2: note = 2-Aminoisobutyric Acid; SITE 12: note = L-ornithine; SITE 13: note = alpha-methyl-leucine; SITE 17: note = Lysine is chemically modified through conjugation of the epsilon-amino group of the Lysine side chain with (2-[2-(2-Amino-ethoxy)-ethoxy]-acetyl)-(gamma-Glu)) [Example 172] too.
[out] 457

[in] YXQGTFTSDXSXXLDXKAQXQFIEXLIAGGPSSGAPPPSGSEE (non-natural residues (Aib, 4Pal, Orn, Me4Pal, αMeY); lipidated Lys; C-amide; synthetic construct; SITE 2: note = 2-Aminoisobutyric Acid; SITE 10: note = 3-(4-Pyridyl)-L-alanine; SITE 12: note = L-ornithine; SITE 13: note = alpha-methyl-leucine; SITE 16: note = L-ornithine; SITE 17: note = Lysine is chemically modified through conjugation of the epsilon-amino group of the Lys) [Example 992] ?
[out] 643
